- Tested on: male rats
- TEST DESCRIPTION: Copulatory behavior testing
- Format: in vivo, rat
- DETAILS: 5 mg/kg oral
METRIC NAME: mount latency (ML) (s)
Could you give me the number in s? Just the number is fine.

The examples below pair each entry with its known result.
>>> measurement("O=S(=O)(c1ccc(Cl)cc1Cl)N1CCC(Cc2ccccc2)CC1")
72.5
>>> measurement("O=C(CN1CCC(Cc2ccccc2)CC1)Nc1ccccc1")
95.5
>>> measurement("O=S(=O)(c1ccc(Cl)cc1Cl)N1CCC(c2ccccc2)CC1")
74.6

Alright, here's another compound for you.
Ask | # query: mount latency (ML) of entry CCCc1nn(C)c2c(=O)[nH]c(-c3cc(S(=O)(=O)N4CCN(C)CC4)ccc3OCC)nc12 [sildenafil, reference compound]
Reply | 68.5

----------
Measured IC50, listed per entry.
- SYSTEM UNDER TEST: Phosphodiesterase type 5 (PDE5) (Homo sapiens (Human), UniProt O76074)
- TEST DESCRIPTION: In vitro phosphodiesterase type 5 (PDE5) inhibition assay
- Format: biochemical
- DETAILS: purified PDE5, IMAP FP assay
// note: answer is a bare numeric in nM

Below, each entry is followed by its recorded IC50 result.
>>> measurement("Cc1cc(C)c(S(=O)(=O)N2CCC(c3ccccc3)CC2)c(C)c1")
296
>>> measurement("O=S(=O)(c1ccc(Cl)cc1Cl)N1CCC(c2ccccc2)CC1")
47.9
>>> measurement("Cc1ccc(S(=O)(=O)N2CCC(Cc3ccccc3)CC2)cc1")
56.5
>>> measurement("NS(=O)(=O)c1ccc(NC(=O)CN2CCC(Cc3ccccc3)CC2)cc1")
221
>>> measurement("COc1ccc(S(=O)(=O)N2CCC(c3ccccc3)CC2)c(OC)c1")
106

Moving on to another compound below.
Ask | Phosphodiesterase type 5 (PDE5) (Homo sapiens (Human), UniProt O76074) / IC50 / NS(=O)(=O)c1ccc(CNC(=O)CN2CCC(Cc3ccccc3)CC2)cc1 : value?
Reply | 39.4

----------
METRIC NAME: melting point

>>> measurement("O=S(=O)(c1ccc(Cl)c(Cl)c1)N1CCC(Cc2ccccc2)CC1")
"166 to 168 °C"

Ask | So what does the record say about melting point for O=S(=O)(c1ccc(Cl)c(Cl)c1)N1CCC(c2ccccc2)CC1 ?
Reply | 217 to 219 °C

Ask | Please answer likewise for COc1ccccc1S(=O)(=O)N1CCC(Cc2ccccc2)CC1
Reply | 95 to 97 °C

Ask | Same thing, different compound: Cc1cc(C)c(S(=O)(=O)N2CCC(Cc3ccccc3)CC2)c(C)c1
Reply | 70 to 72 °C

----------
Catalogue of intromission latency (IL) readings, one per entry.
- System: male rats
- TEST DESCRIPTION: Copulatory behavior testing
- Assay type: in vivo, rat
- DETAILS: 5 mg/kg oral
State just the number; it will be interpreted in s.

Take a look at these entries with their results.
>>> measurement("Cc1ccc(S(=O)(=O)N2CCC(Cc3ccccc3)CC2)cc1")
195.5
>>> measurement("NS(=O)(=O)c1ccc(CNC(=O)CN2CCC(Cc3ccccc3)CC2)cc1")
122.6
>>> measurement("O=S(=O)(c1ccc(Cl)cc1Cl)N1CCC(c2ccccc2)CC1")
177.6

Ask | Can you look up the measured intromission latency (IL) of O=S(=O)(c1ccc(Cl)c(Cl)c1)N1CCC(c2ccccc2)CC1 for me?
Reply | 205.5

Ask | Again, but for O=S(=O)(c1ccc(Cl)cc1Cl)N1CCC(Cc2ccccc2)CC1
Reply | 178.6

Ask | // same read-out, input: COc1ccc(S(=O)(=O)N2CCC(Cc3ccccc3)CC2)c(OC)c1
Reply | 193.8

Ask | // same read-out, input: CCCc1nn(C)c2c(=O)[nH]c(-c3cc(S(=O)(=O)N4CCN(C)CC4)ccc3OCC)nc12 [sildenafil, reference compound]
Reply | 135.1

Ask | # iterate: COc1ccc(S(=O)(=O)N2CCC(Cc3ccccc3)CC2)cc1OC
Reply | 229.1

----------
- Tested on: male rats
- TEST DESCRIPTION: Copulatory behavior testing
- Assay type: in vivo, rat
- DETAILS: 5 mg/kg oral
Measured mount latency (ML) values are reported for all entries that follow.
Supply the numeric figure in s, leaving out any unit text.

Use the examples below as a reference point.
>>> measurement("NS(=O)(=O)c1ccc(CNC(=O)CN2CCC(Cc3ccccc3)CC2)cc1")
54.6
>>> measurement("Cc1ccc(S(=O)(=O)N2CCC(Cc3ccccc3)CC2)cc1")
94.6
>>> measurement("COc1ccc(S(=O)(=O)N2CCC(Cc3ccccc3)CC2)cc1OC")
95.5
>>> measurement("COc1ccc(S(=O)(=O)N2CCC(Cc3ccccc3)CC2)c(OC)c1")
85.0

Now consider a different molecule.
Ask | Recorded mount latency (ML) of O=S(=O)(c1ccc(Cl)c(Cl)c1)N1CCC(c2ccccc2)CC1 , please.
Reply | 94.6

----------
- TEST DESCRIPTION: Evaluation of LD50 (acute oral toxicity)
- Assay type: in vivo
- DETAILS: rat, in vivo, po; single intragastric administration, rats, 24 h
LD50 at 24 h by entry:

>>> measurement("O=S(=O)(c1ccc(Cl)cc1Cl)N1CCC(Cc2ccccc2)CC1")
"> 2000 mg/kg"
>>> measurement("NS(=O)(=O)c1ccc(CNC(=O)CN2CCC(Cc3ccccc3)CC2)cc1")
"> 2000 mg/kg"

Ask | # LD50 at 24 h lookup, item O=S(=O)(c1ccc(Cl)cc1Cl)N1CCC(c2ccccc2)CC1
Reply | > 2000 mg/kg

----------
- Tested on: male rats
- TEST DESCRIPTION: Copulatory behavior testing
- Assay type: in vivo, rat
- DETAILS: 5 mg/kg oral
METRIC NAME: ejaculation latency (EL) (s)
API: value field is a number in s; no unit string.

Consider the reported ejaculation latency (EL) for these compounds:
>>> measurement("O=S(=O)(c1ccc(Cl)cc1Cl)N1CCC(c2ccccc2)CC1 [Compound C9]")
368.3
>>> measurement("NS(=O)(=O)c1ccc(CNC(=O)CN2CCC(Cc3ccccc3)CC2)cc1 [Compound C14]")
425.1
>>> measurement("O=C(CN1CCC(Cc2ccccc2)CC1)Nc1ccccc1 [Compound C30]")
324.6
>>> measurement("COc1ccc(S(=O)(=O)N2CCC(Cc3ccccc3)CC2)c(OC)c1 [Compound C24]")
377.6

Ask | Requested field: ejaculation latency (EL). Item: O=S(=O)(c1ccc(Cl)c(Cl)c1)N1CCC(c2ccccc2)CC1 [Compound C11]
Reply | 318.1

Ask | Same thing, different compound: Cc1ccc(S(=O)(=O)N2CCC(Cc3ccccc3)CC2)cc1 [Compound C28]
Reply | 332.8

Ask | O=S(=O)(c1ccc(Cl)cc1Cl)N1CCC(Cc2ccccc2)CC1 [Compound C21] ?
Reply | 395.0

Ask | And for CCCc1nn(C)c2c(=O)[nH]c(-c3cc(S(=O)(=O)N4CCN(C)CC4)ccc3OCC)nc12 [sildenafil, reference compound] ?
Reply | 426.6

----------
- SYSTEM UNDER TEST: Phosphodiesterase type 5 (PDE5) (Homo sapiens (Human))
pIC50: −log10 of the molar value.
Mark YES for reported pIC50 of 7 or greater; mark NO for anything smaller.

Ask | Hi, just wondering whether COc1ccc(S(=O)(=O)N2CCC(c3ccccc3)CC2)cc1OC [Compound C2] shows pIC50 of 7 or higher.
Reply | NO

Ask | O=S(=O)(c1ccccc1)N1CCC(c2ccccc2)CC1 [Compound C8] , same question.
Reply | YES

Ask | Could you do the same for O=C(CN1CCC(Cc2ccccc2)CC1)Nc1ccccc1 [Compound C30] , please?
Reply | YES

Ask | Now consider COc1ccc(NC(=O)CN2CCC(Cc3ccccc3)CC2)cc1 [Compound C15] .
Reply | NO

Ask | Would you kindly repeat that for CC(C)c1cc(C(C)C)c(S(=O)(=O)N2CCC(c3ccccc3)CC2)c(C(C)C)c1 [Compound C7] ?
Reply | NO

----------
METRIC NAME: melting point

Here's what some known entries look like.
>>> measurement("COc1ccc(NC(=O)CN2CCC(Cc3ccccc3)CC2)cc1")
"61 to 63 °C"
>>> measurement("COc1ccc(CNC(=O)CN2CCC(Cc3ccccc3)CC2)cc1")
"89 to 91 °C"
>>> measurement("O=C(CN1CCC(Cc2ccccc2)CC1)NCc1ccc(F)cc1")
"72 to 74 °C"
>>> measurement("COc1ccc(S(=O)(=O)N2CCC(c3ccccc3)CC2)c(OC)c1")
"191 to 193 °C"
>>> measurement("COc1ccccc1S(=O)(=O)N1CCC(c2ccccc2)CC1")
"173 to 175 °C"
>>> measurement("COc1ccc(S(=O)(=O)N2CCC(c3ccccc3)CC2)cc1OC")
"207 to 209 °C"

Now look at this entry.
Ask | Could you tell me which melting point is on file for Cc1cc(C)c(S(=O)(=O)N2CCC(c3ccccc3)CC2)c(C)c1 ?
Reply | 157 to 159 °C
